# target-under-test: Jarid1B (Homo sapiens)
# Sequence (Q9UGL1 2-751): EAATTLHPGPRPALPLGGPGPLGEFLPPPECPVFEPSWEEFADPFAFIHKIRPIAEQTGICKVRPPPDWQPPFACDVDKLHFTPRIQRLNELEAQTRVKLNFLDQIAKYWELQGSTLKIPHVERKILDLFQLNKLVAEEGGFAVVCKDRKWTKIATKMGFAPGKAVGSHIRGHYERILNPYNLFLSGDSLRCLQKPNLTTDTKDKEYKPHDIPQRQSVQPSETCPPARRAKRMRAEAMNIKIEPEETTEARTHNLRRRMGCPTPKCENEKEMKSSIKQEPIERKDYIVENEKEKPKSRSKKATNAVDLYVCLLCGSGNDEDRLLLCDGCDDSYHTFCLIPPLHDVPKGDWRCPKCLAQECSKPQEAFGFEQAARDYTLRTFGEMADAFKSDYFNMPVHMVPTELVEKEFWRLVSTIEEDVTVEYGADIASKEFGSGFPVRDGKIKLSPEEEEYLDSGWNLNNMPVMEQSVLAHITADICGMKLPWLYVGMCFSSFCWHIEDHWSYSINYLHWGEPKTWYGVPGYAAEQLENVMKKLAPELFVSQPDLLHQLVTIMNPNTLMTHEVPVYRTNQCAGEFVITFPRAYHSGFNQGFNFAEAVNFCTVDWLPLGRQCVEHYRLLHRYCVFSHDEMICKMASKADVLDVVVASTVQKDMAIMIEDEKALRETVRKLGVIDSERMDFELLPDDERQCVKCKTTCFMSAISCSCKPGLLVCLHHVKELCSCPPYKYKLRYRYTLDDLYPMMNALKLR
# protocol-summary: Jarid1B in vitro enzyme inhibition assay (TR-FRET)
# Type: biochemical
# experimental-conditions: 0.8 nM Jarid1B, 300 nM H3K4me3-biotin peptide, 2 μM alpha-ketoglutaric acid
Counter-ions that a name gives are not always drawn.

compound	IC50
CNCCCCCn1nc(Nc2cnccc2C(=O)O)c2cc(F)ccc21 [Example 46, trifluoroacetic acid salt]	< 100 nM
CN(C)CC#CCn1nc(Nc2cnccc2C(=O)O)c2cc(F)ccc21 [Example 49, trifluoroacetic acid salt]	< 100 nM
O=C(O)c1ccncc1Nc1nn(Cc2ccccc2)c2ccc(F)cc12 [Example 24]	< 100 nM
O=C(O)c1ccncc1Nc1nn(C2CCC(F)(F)CC2)c2ccc(F)cc12 [Example 64]	1000 to 10000 nM
